ASSAYED_SYSTEM: T1, CEACAM1 (Sino Biological) (human, UniProt P13688 35-428, limits assumed)
T1 construct: may be the same as CEACAM1-HIS; also called hCEACAM1; biotinylated soluble CEACAM1
T1 sequence: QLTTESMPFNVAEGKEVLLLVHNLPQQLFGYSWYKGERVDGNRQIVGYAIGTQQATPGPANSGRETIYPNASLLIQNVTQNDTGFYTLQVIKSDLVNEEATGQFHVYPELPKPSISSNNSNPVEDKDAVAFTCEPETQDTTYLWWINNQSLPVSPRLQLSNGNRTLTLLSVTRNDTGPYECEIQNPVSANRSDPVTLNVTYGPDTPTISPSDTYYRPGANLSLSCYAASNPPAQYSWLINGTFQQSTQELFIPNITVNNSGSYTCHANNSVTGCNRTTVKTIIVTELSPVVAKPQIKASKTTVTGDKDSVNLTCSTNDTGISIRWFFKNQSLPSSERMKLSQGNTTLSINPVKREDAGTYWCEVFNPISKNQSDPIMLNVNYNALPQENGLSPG
TEST_METHOD_NOTES: SPR single-cycle
Label met when fold better than Parent (KD) is at or above 2 fold; otherwise label not met.

Consider the following illustrative entries.
He14/L16 (antibody, IgG4, V domains shown, IgG4 S241P, kappa) VH: EVQLLESGGGLVQPGGSLRLSCAASGFSFSDYYLYWVRQAPGKGLEWVATISVGGGQTSYADSVKGRFTISRDNSKNTLYLQMNSLRAEDTAMYYCTRGLYYGPSWVAYWGQGTLVTVSS VL: DIVMTQSPDSLAVSLGERATINCKSSQSLLNSANQKNYLAWYQQKPGQPPKLLIYFASTRESGVPDRFSGSGSGTDFTLTISSLQAEDVAVYYCQSHYPYPFTFGGGTKVEIK: not met
He13/L2 (antibody, IgG4, V domains shown, IgG4 S241P, kappa) VH: EVQLLESGGGLVQPGGSLRLSCAASGFSFSDYYLYWVRQAPGKGLEWVATISVGGGQTSYADSVKGRFTISRDNSKNTLYLQMNSLRAEDTAMYYCTRGLYYGPSWLAYWGQGTLVTVSS VL: DIVMTQSPDSLAVSLGERATINCKSSQSLLNSANQKNYLAWYQQKPGQPPKLLIYFASTRESGVPDRFSGSGSGTDFTLTISSLQAEDVAVYYCQSHYPFPYTFGGGTKVEIK: not met
He4/L4#2 (antibody, IgG4, V domains shown, IgG4 S241P, kappa) VH: EVQLLESGGGLVQPGGSLRLSCAASGFSFSDYYLYWVRQAPGKGLEWVATISVGGGQTSYADSVKGRFTISRDNSKNTLYLQMNSLRAEDTAMYYCTRALYYGPAWFAYWGQGTLVTVSS VL: DIVMTQSPDSLAVSLGERATINCKSSQSLLNSANQKNYLAWYQQKPGQPPKLLIYFASTRESGVPDRFSGSGSGTDFTLTISSLQAEDVAVYYCQSHYPYPYTFGGGTKVEIK: met
He6/L6 (antibody, IgG4, V domains shown, IgG4 S241P, kappa) VH: EVQLLESGGGLVQPGGSLRLSCAASGFSFSDYYLYWVRQAPGKGLEWVATISVGGGQTSYADSVKGRFTISRDNSKNTLYLQMNSLRAEDTAMYYCARARTYGPAWFAYWGQGTLVTVSS VL: DIVMTQSPDSLAVSLGERATINCKSSQSLLNSANQKNYLAWYQQKPGQPPKLLIYFASTRESGVPDRFSGSGSGTDFTLTISSLQAEDVAVYYCQSHYPFSFTFGGGTKVEIK: not met

Here is another binder to look at.
Query :: Quick check, fold better than Parent (KD) >= 2 fold? He1/L5 (antibody, IgG4, V domains shown, IgG4 S241P, kappa) VH: EVQLLESGGGLVQPGGSLRLSCAASGFSFSDYYLYWVRQAPGKGLEWVATISVGGGQTSYADSVKGRFTISRDNSKNTLYLQMNSLRAEDTAMYYCTRGLYYGPSWFAYWGQGTLVTVSS VL: DIVMTQSPDSLAVSLGERATINCKSSQSLLNSANQKNYLAWYQQKPGQPPKLLIYFASTRESGVPDRFSGSGSGTDFTLTISSLQAEDVAVYYCQSHYPFAFTFGGGTKVEIK
Result :: not met
